Test system: Lactobacillus paracasei
protocol: growth AUC relative to DMSO control (median of replicates) (fraction); higher = more growth (less inhibition), active = hit call of the paper
conditionSet: 20 µM; 24 h
Kindly return YES if reported growth AUC is no lower than 1; return NO if it is lower.

compound=COc1c(I)cc(C#N)cc1I labelclass=NO
compound=CCCN(CCOc1c(Cl)cc(Cl)cc1Cl)C(=O)NC=O labelclass=NO
compound=CCc1cccc(C)c1N(COC(C)C)C(=O)CCl labelclass=YES
compound=CCCCCCCCOC(=O)COc1cc(Cl)c(Cl)cc1Cl labelclass=YES
compound=CN(C)C(=O)Nc1ccc(Oc2ccc(Cl)cc2)cc1 labelclass=YES
compound=c1ccc(Sc2ccccc2)cc1 labelclass=YES
compound=CCOc1ccc(NC(=O)OC(C)C)cc1OCC labelclass=NO
compound="COC(=O)C(C)Oc1cc(Cl)c(Cl)cc1Cl (stereo not drawn)" labelclass=NO
compound=COC(=O)c1ccc(C(=O)OC)cc1 labelclass=NO

====

Tested on: Escherichia coli IAI1
protocol: growth AUC relative to DMSO control (median of replicates) (fraction); higher = more growth (less inhibition), active = hit call of the paper
conditionSet: 20 µM; 24 h
propertyMeasured: growth AUC

molecule=CN(C(=O)NC(C)(C)c1ccccc1)c1ccccc1 result=0.974
molecule=CCNc1nc(Cl)nc(N(CC)CC)n1 result=0.971
molecule=CS(=O)(=O)c1ccc(C(=O)O)c(N)c1 result=1.01
molecule=C=O result=0.999
molecule="CS(=O)(=O)c1ccc(C(=O)C2C(=O)C(O)CC(O)C2=O)c(Cl)c1COCC(F)(F)F (stereo not drawn)" result=0.972
molecule=C#CCOC(=O)[C@@H](C)Oc1ccc(Oc2ncc(Cl)cc2F)cc1 result=0.987
molecule="CCC/C(=N\\OCC)C1=C(O)CC(C2CCCSC2)CC1=O (stereo not drawn)" result=1.01
molecule=N#Cc1ccccc1NC(=O)c1snc(Cl)c1Cl result=0.995

====

This listing pairs molecules with measured growth AUC.
System: Odoribacter splanchnicus
protocol: growth AUC relative to DMSO control (median of replicates) (fraction); higher = more growth (less inhibition), active = hit call of the paper
conditionSet: 20 µM; 24 h
propertyMeasured: growth AUC

chemsmiles=CC(C)c1cccc2c(=O)c3ccccc3sc12 result=1.05
chemsmiles=CCCOc1nc2ccc(I)cc2c(=O)n1CCC result=1.05
chemsmiles=[O-][n+]1nc(-n2ccnc2)nc2ccc(Cl)cc21 result=1.03
chemsmiles=CC(C)(SC(=O)N1CCCCC1)c1ccccc1 result=1
chemsmiles=c1cc2ccc3ccc4ccc5cccc6c(c1)c2c3c4c56 result=1.01
chemsmiles=CCCCN(C)C(=O)Nc1ccc(Cl)c(Cl)c1 result=0.901
chemsmiles=Clc1ccc(CSc2ccc(Cl)cc2)cc1 result=1.07

====

Tested on: Bacteroides stercoris
protocol: growth AUC relative to DMSO control (median of replicates) (fraction); higher = more growth (less inhibition), active = hit call of the paper
conditionSet: 20 µM; 24 h
This listing pairs compounds with measured growth AUC.
propertyMeasured: growth AUC

compound="NC(Cn1cncn1)C(=O)O (stereo unspecified)" propertymeasured="growth AUC" result=1.01
compound=O=C(O)Cc1c[nH]c2ccccc12 propertymeasured="growth AUC" result=1.02
compound=CCOCCc1ccc(OCCNc2ncnc(CC)c2Cl)c(C)c1C propertymeasured="growth AUC" result=0.975
compound=C[S+](C)CCC(=O)O.[Cl-] propertymeasured="growth AUC" result=0.974
compound=O=C1NCC[n+]2ccccc21.[Br-] propertymeasured="growth AUC" result=0.984
compound=Oc1ccccc1O propertymeasured="growth AUC" result=1

====

Tested on: Bacteroides thetaiotaomicron
protocol: growth AUC relative to DMSO control (median of replicates) (fraction); higher = more growth (less inhibition), active = hit call of the paper
conditionSet: 20 µM; 24 h
propertyMeasured: growth AUC

compound=COC(=O)c1ccc(C(F)(F)F)nc1S(=O)(=O)[N-]C(=O)Nc1nc(OC)cc(OC)n1.[Na+] assayedtarget="Bacteroides thetaiotaomicron" result=0.993
compound=CCOCN(C(=O)C(=O)O)c1c(C)cccc1CC assayedtarget="Bacteroides thetaiotaomicron" result=1.01
compound=COC(=O)Cc1cccc2ccccc12 assayedtarget="Bacteroides thetaiotaomicron" result=0.995
compound="COC(=O)C(C)Oc1ccc(Cl)cc1C (stereo unspecified)" assayedtarget="Bacteroides thetaiotaomicron" result=1
compound=CCNc1nc(Cl)nc(N(CC)CC)n1 assayedtarget="Bacteroides thetaiotaomicron" result=0.977
compound=C#CCOC(=O)[C@@H](C)Oc1ccc(Oc2ncc(Cl)cc2F)cc1 assayedtarget="Bacteroides thetaiotaomicron" result=0.975

====

Tested on: Bifidobacterium longum subsp. longum
protocol: growth AUC relative to DMSO control (median of replicates) (fraction); higher = more growth (less inhibition), active = hit call of the paper
conditionSet: 20 µM; 24 h
This listing pairs molecules with measured growth AUC.
propertyMeasured: growth AUC

chemsmiles=CC1=C(c2ccccc2)C(=O)N(C(C)(C)c2cc(Cl)cc(Cl)c2)CO1 assayedtarget="Bifidobacterium longum subsp. longum" propertymeasured="growth AUC" result="0.956 (inactive)"
chemsmiles=CNC(=O)Nc1nc2ccccc2s1 assayedtarget="Bifidobacterium longum subsp. longum" propertymeasured="growth AUC" result="0.955 (inactive)"
chemsmiles=CS(=O)(=O)c1ccc(C(=O)O)c(N)c1 assayedtarget="Bifidobacterium longum subsp. longum" propertymeasured="growth AUC" result="1 (inactive)"

====

This listing pairs molecules with measured growth AUC.
System: Escherichia coli ED1a
protocol: growth AUC relative to DMSO control (median of replicates) (fraction); higher = more growth (less inhibition), active = hit call of the paper
conditionSet: 20 µM; 24 h
propertyMeasured: growth AUC

molecule=Oc1ccc2nc(-c3cscn3)[nH]c2c1 propertymeasured="growth AUC" result=0.988
molecule=O=C(Oc1ccccc1)n1c(C(F)(F)F)nc2cc(Cl)c(Cl)cc21 propertymeasured="growth AUC" result=0.704
molecule=O=S(=O)(Oc1ccc(Cl)cc1)c1ccccc1 propertymeasured="growth AUC" result=0.981
molecule="Cc1ccc2c(c1)[C@H](Nc1nc(N)nc(C(C)F)n1)[C@@H](C)C2 (some centres undefined)" propertymeasured="growth AUC" result=1.03
molecule=O=[N+](Nc1ccccc1)c1ccccc1 propertymeasured="growth AUC" result=0.993
molecule=O=C1NC(=O)c2ccccc21 propertymeasured="growth AUC" result=1.02
molecule=CCCCOCCOCCOCc1cc2c(cc1CCC)OCO2 propertymeasured="growth AUC" result=1.03
molecule=CCOC(=O)c1cnn(C)c1S(=O)(=O)NC(=O)Nc1nc(OC)cc(OC)n1 propertymeasured="growth AUC" result=1.02
molecule="COC(=O)C(C)Oc1ccc(Oc2ncc(C(F)(F)F)cc2Cl)cc1 (centres undefined)" propertymeasured="growth AUC" result=0.972
molecule=CC(C)c1cccc2c(=O)c3ccccc3sc12 propertymeasured="growth AUC" result=1.03
molecule=CCCN(CCOc1c(Cl)cc(Cl)cc1Cl)C(N)=O propertymeasured="growth AUC" result=1.01
molecule="Cc1cccc(C)c1N(CCSCC(O)C(=O)[O-])C(=O)CO.[Na+] (centres undefined)" propertymeasured="growth AUC" result=0.977
molecule=[O-][n+]1nc(-n2ccnc2)nc2ccc(Cl)cc21 propertymeasured="growth AUC" result=0.95
molecule=Cc1cc(C)cc(O)c1 propertymeasured="growth AUC" result=0.953
molecule=Clc1ccc(CSc2ccc(Cl)cc2)cc1 propertymeasured="growth AUC" result=1
molecule=CCNc1nc(N)nc(Cl)n1 propertymeasured="growth AUC" result=1
molecule=COc1nc(OC)nc(C(=O)c2cccc(F)c2N(C)S(=O)(=O)C(F)F)n1 propertymeasured="growth AUC" result=0.999
molecule=CON=C(Cc1cccnc1)c1ccc(Cl)cc1Cl propertymeasured="growth AUC" result=1
molecule="NC(=O)c1nn(-c2c(Cl)cc(C(F)(F)F)cc2Cl)c(N)c1S(=O)C(F)(F)F (centres undefined)" propertymeasured="growth AUC" result=0.964

====

Test system: Roseburia intestinalis
protocol: growth AUC relative to DMSO control (median of replicates) (fraction); higher = more growth (less inhibition), active = hit call of the paper
conditionSet: 20 µM; 24 h
propertyMeasured: growth AUC

compound=CCSC(=O)N(CC(C)C)CC(C)C result="1.01 (inactive)"
compound=CC(C)N(C)S(=O)(=O)NC(=O)c1cc(-n2c(=O)cc(C(F)(F)F)[nH]c2=O)c(F)cc1Cl result="0.987 (inactive)"
compound=CCCCCCCC/C=C\CCCCCCCCCCCC(=O)O result="0.973 (inactive)"
compound=c1ccc2c(c1)ccc1ccccc12 result="0.993 (inactive)"
compound=O=C(O)COc1cc(N2C(=O)C3=C(CCCC3)C2=O)c(F)cc1Cl result="0.987 (inactive)"
compound="COCC(=O)N(c1c(C)cccc1C(=O)O)C(C)C(=O)O (stereo not given)" result="1.02 (inactive)"
compound=CCc1nc2ncnn2c(N)c1CCCC(=O)O.Cl result="0.991 (inactive)"
compound=COc1ccc(Cl)c(Cl)c1Cl result="0.999 (inactive)"
compound=COc1nc(C)nc(NC(=O)NS(=O)(=O)c2ccccc2OCCCl)n1 result="1 (inactive)"
compound=O=C(O)Cc1c(Cl)ccc(Cl)c1Cl result="0.979 (inactive)"
compound=CN(C(=O)NC(C)(C)c1ccccc1)c1ccccc1 result="1.02 (inactive)"
compound=O=C(O)C1(C(=O)Nc2ccc(Cl)cc2Cl)CC1 result="1.02 (inactive)"
compound="Cc1cc(C)cc(OCC(C)Nc2nc(N)nc(C(C)(C)F)n2)c1 (stereo not given)" result="0.971 (inactive)"
compound=CNC(=O)/C(=N/OC)c1ccccc1COc1cc(C)ccc1C result="1.02 (inactive)"
compound="NC(=O)c1nn(-c2c(Cl)cc(C(F)(F)F)cc2Cl)c(N)c1S(=O)C(F)(F)F (stereo not given)" result="0.992 (inactive)"
